Biological target: sheep brain glutamine synthetase
Format: biochemical
Conditions: read-out: Ki D,L-Ppt
Experimental Readout: Ki (µM)
Note: unit µM is implicit; provide only the numeric part.

### Prompt Quick one: Ki of CP(=O)(O)CCC(N)C(=O)O (racemic) ?
### Response 16.4

###

Molecular target: M. tuberculosis glutamine synthetase (Mycobacterium tuberculosis, UniProt P9WN39)
Sequence (P9WN39 2-478): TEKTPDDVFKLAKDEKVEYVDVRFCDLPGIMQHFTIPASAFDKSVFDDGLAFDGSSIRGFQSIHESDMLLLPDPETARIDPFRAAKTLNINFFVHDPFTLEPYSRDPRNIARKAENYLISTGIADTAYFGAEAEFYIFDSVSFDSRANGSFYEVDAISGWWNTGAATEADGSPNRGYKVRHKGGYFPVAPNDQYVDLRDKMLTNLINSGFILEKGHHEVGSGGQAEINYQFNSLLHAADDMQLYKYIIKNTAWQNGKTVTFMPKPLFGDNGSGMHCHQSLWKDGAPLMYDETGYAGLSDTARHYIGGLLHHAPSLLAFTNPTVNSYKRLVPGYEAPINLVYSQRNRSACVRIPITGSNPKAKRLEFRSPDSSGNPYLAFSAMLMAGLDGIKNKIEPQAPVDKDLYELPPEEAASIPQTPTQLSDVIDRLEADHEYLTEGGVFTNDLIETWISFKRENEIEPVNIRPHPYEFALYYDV
Type: cell-based, M. tuberculosis Erdman
Experimental Readout: effect on intracellular or extracellular glutamine synthetase activity

# Compound, Test System, Obs Value
records = [
    ("CO[C@H]1/C=C/O[C@@]2(C)Oc3c(C)c(O)c4c(O)c(c(/C=N/N5CCN(C)CC5)c(O)c4c3C2=O)NC(=O)/C(C)=C\\C=C\\[C@H](C)[C@H](O)[C@@H](C)[C@@H](O)[C@@H](C)[C@H](OC(C)=O)[C@@H]1C", "M. tuberculosis glutamine synthetase (Mycobacterium tuberculosis, UniProt P9WN39)", "negligible effect"),
    ("NC(=O)c1cnccn1 [pyrazinamide]", "M. tuberculosis glutamine synthetase (Mycobacterium tuberculosis, UniProt P9WN39)", "negligible effect"),
    ("NNC(=O)c1ccncc1", "M. tuberculosis glutamine synthetase (Mycobacterium tuberculosis, UniProt P9WN39)", "negligible effect"),
    ("CC[C@@H](CO)NCCN[C@@H](CC)CO", "M. tuberculosis glutamine synthetase (Mycobacterium tuberculosis, UniProt P9WN39)", "negligible effect"),
]

Hello, the source for this data is paper PMC2193054, in case you need it.
